FYI, the data here is from patent US20140120095A1.

Molecular target: T1, recombinant human DLL4 (human, UniProt Q9NR61 25-522)
T1 construct: also called rhDLL4; hDLL4
T1 sequence (Q9NR61 25-522): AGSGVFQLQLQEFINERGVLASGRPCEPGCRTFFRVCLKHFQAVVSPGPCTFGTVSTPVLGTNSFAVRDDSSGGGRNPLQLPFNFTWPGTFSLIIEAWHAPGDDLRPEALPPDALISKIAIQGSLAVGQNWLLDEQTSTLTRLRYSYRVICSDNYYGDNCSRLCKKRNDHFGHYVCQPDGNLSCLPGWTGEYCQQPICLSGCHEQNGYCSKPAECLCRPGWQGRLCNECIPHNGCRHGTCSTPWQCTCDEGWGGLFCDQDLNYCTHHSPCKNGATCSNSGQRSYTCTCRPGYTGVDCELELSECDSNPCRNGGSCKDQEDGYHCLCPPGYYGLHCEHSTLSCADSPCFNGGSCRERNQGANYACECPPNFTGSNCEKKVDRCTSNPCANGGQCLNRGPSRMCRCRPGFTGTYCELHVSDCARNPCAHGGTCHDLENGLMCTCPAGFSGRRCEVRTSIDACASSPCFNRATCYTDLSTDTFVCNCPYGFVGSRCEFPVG
Test: competition AlphaScreen, biot-hDLL4/hNotch1-Fc
pIC50: −log10 of the molar value.
We begin with a simple list: items and their reported pIC50.

binder	pIC50
DLLBII05B11 (VHH, also called DLLBII5B11) VHH: EVQLVESGGGLVQPGGSLRLSCAISGFTLDLHVIGWLRQAPGKEREWVSCISSSDGSTYYADSVKGRFTISRDNAKNTVYLQMNSLKPEDTAVYYCAAPWDSWYCGIGNDYDYWGQGTQVTVSS	9.15
DLLBII07B05 (VHH, also called DLLBII7B05) VHH: EVQLVESGGGLVQAGGSLRLSCAASGFALDYYAVGWFRQAPGKEREGVSCISSRGGSTFYADSVKGRFTTSRNNAKNTVYLQMNSLKPEDTAVYYCAAHPLQNCCGGSAYASPEAVYEYWGQGTQVTVSS	8.96
DLLBII07A02 (VHH) VHH: EVQLVESGGGLVQAGGSLRLSCAASGSTFNSYAMGWYRQAPGKQREWVAAFSTGGSTNYADSVKGRFTISRDNAKNTVYLQMNSLKPEDTAVYYCFYSGSYYYPTDVFEYDYWGQGTQVTVSS	9.40
DLLBII55D12 (VHH) VHH: EVQLVESGGGLVQPGGSLRLSCAASGFTFDDYAIGWFRQAPGKEPEGISCISSSGGITYYADSVKGRFTISRDNAKNTVYLQMNSLKPEDTAVYYCATPGIAACRGIHYTGQGTQVTVSS	8.64
DLLBII08A09 (VHH, also called DLLBII8A09) VHH: EVQLVESGGGLVQPGGSLRLSCAASGFTLDYYNIGWFRQAPGKEREWVSCINSSDGSTYYADSVKGRFTISRDNAKNTVYLQMNSLKPEDTAVYYCAAPFAYYSNLCGVNGYDYWGQGTQVTVSS	9.40
DLLBII6B11 (VHH, also called DLLBII06B1) VHH: EVQLVESEGGLVQAGGSLRLSCAASGSTFSSYAMGWYRQAPGKQRELVAVISNGGITNYPNSVKGRFTISRDNAKNTVYLQMNSLKPEDTAVYYCFYSGSYYYPTDVHEYDYWGQGTQVTVSS	9.52
DLLBII57C11 (VHH) VHH: EVQLVESGGGLVQPGGSLRLSCTASGFTFDDYAIGWFRQAPGKEPEGISCISSSGSITYDADSVKGRFTISRDNAKNTVYLQMNSLKPEDTAVYYCATPGIAACRGIHYWGQGTQVTVSS	8.66
DLLBII115A05 (VHH, also called 115A5; DLLBII115A5) VHH: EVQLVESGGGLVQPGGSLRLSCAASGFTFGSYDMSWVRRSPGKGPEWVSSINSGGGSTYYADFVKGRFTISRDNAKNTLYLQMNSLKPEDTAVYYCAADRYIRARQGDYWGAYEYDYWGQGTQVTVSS	8.30
DLLBII56C04 (VHH) VHH: EVQLVESGGGLVQPGGSLRLSCTASGFTFDVYAIGWFRQAPGKEPEGISCISSSGSITYYADSVKGRFTTSRDSAKNTVYLQMNSLKPEDTAVYYCATPGIAACRGIHYWGQGTQVTVSS	8.27
